- TEST_SYSTEM: T1, human CCR8 (human, UniProt P51685 1-355)
- T1 construct: whole, on cells; also called hCCR8
- T1 sequence (P51685 whole entry): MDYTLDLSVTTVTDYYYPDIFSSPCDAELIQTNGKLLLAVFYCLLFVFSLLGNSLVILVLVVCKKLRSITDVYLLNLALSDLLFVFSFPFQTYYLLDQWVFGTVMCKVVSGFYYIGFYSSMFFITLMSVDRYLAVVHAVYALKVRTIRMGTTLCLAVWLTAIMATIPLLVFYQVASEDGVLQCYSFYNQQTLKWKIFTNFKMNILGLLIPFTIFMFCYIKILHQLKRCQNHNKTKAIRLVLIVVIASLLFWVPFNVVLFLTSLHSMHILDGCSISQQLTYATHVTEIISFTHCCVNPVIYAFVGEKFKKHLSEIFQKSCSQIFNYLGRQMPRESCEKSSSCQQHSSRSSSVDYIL
- PROTOCOL_TEXT: FACS, competition with AF647-human CCL1 on CHO-K1-human CCR8 cells
READOUT: Max Inhibition (%)
Provide the reading as a plain figure in %.

Fill in the blank: the reported Max Inhibition (%) of 348E2D11 (antibody, V domains shown, purified murine hybridoma antibody) VH: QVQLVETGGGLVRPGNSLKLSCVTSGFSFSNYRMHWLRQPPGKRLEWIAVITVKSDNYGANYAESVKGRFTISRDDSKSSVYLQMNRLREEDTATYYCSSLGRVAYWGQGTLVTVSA VL: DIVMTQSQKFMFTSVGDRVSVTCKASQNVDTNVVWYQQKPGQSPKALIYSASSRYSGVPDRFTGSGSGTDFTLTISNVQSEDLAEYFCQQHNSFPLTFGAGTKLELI is ____.
95

Fill in the blank: the reported Max Inhibition (%) of 204A2G12 (antibody, V domains shown, purified murine hybridoma antibody) VH: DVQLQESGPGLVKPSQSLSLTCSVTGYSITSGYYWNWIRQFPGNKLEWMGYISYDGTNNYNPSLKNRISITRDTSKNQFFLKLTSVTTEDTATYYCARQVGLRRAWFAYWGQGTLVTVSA VL: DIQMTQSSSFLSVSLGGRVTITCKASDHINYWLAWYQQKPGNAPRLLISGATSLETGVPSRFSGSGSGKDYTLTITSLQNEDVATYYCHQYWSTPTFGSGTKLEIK is ____.
95

Fill in the blank: the reported Max Inhibition (%) of 234G9C12 (antibody, V domains shown, purified murine hybridoma antibody) VH: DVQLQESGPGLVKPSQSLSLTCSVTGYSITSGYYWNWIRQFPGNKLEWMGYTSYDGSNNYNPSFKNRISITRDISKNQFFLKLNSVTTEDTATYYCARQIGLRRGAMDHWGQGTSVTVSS VL: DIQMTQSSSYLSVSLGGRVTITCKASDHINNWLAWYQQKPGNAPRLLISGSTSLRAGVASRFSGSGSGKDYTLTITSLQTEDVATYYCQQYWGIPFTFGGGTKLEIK is ____.
96.8
